molecular target: T1, TCE-3; test: competition ELISA, peptide titrated vs TCE binding to captured CD3
T1 construct: anti-CD3 scFv R100A; anti-TROP2 Fab wt; also called 3075
pIC50: −log10 of the molar value. Ends that are not written are not given here.
Listed here are binders together with their documented pIC50.

[[record]]
binder = "QGCGTIADPEPHCW (cysteine pairing not given here; also: biotinylated when captured in ELISA, also called 1363) [Peptide-1]"
result = "< 4.00"


Continue with the next binder.
// recorded pIC50 for SECLVDLQSDPCYW (cysteine pairing not given here; also: biotinylated when captured in binding ELISA, also called 1454) [Peptide-5] : < 4.00
